# System: K. pneumoniae MP-546
# Assay Method Text: Broth dilution MIC determination (CLSI), K. pneumoniae MP-546
# Assay type: cell-based
# Condition Label: Klebsiella pneumoniae, MP546; strain MP-546, broth dilution
Each entry below lists one item and its recorded MIC value.

[
  {
    "Molecule": "CO[C@]1(C)C[C@@H](C)CN(C)[C@H]([C@H]2CCCN(C(C)C)C2)COC(=O)C(C)(C)C(=O)[C@H](C)[C@H]1O[C@@H]1O[C@H](C)C[C@H](N(C)C)[C@H]1O [Compound 104]",
    "Measured On": "K. pneumoniae MP-546",
    "Result": "4 to 32 mg/L"
  },
  {
    "Molecule": "CO[C@]1(C)C[C@@H](C)CN(C)[C@H](C2CN(Cc3cn(C)cn3)C2)COC(=O)C(C)(C)C(=O)[C@H](C)[C@H]1O[C@@H]1O[C@H](C)C[C@H](N(C)C)[C@H]1O [Compound 173]",
    "Measured On": "K. pneumoniae MP-546",
    "Result": "> 32 mg/L"
  },
  {
    "Molecule": "CO[C@]1(C)C[C@@H](C)CN(C)[C@H](C2CN(C(=O)[C@H]3CCN(C)C3)C2)COC(=O)C(C)(C)C(=O)[C@H](C)[C@H]1O[C@@H]1O[C@H](C)C[C@H](N(C)C)[C@H]1O [Compound 168]",
    "Measured On": "K. pneumoniae MP-546",
    "Result": "4 to 32 mg/L"
  },
  {
    "Molecule": "CCCN1C2CCC1CC([C@@H]1COC(=O)C(C)(C)C(=O)[C@H](C)[C@@H](O[C@@H]3O[C@H](C)C[C@H](N(C)C)[C@H]3O)[C@](C)(OC)C[C@@H](C)CN1C)C2 (stereo partly shown) [Compound 79]",
    "Measured On": "K. pneumoniae MP-546",
    "Result": "4 to 32 mg/L"
  },
  {
    "Molecule": "CO[C@]1(C)C[C@@H](C)CN(C)[C@H]([C@H]2C[C@H](N(C)CC3CC3)C2)COC(=O)C(C)(C)C(=O)[C@H](C)[C@H]1O[C@@H]1O[C@H](C)C[C@H](N(C)C)[C@H]1O [Compound 24]",
    "Measured On": "K. pneumoniae MP-546",
    "Result": "< 4 mg/L"
  },
  {
    "Molecule": "CO[C@]1(C)C[C@@H](C)CN(C)[C@@H](C2CCN(CC3CC3)CC2)COC(=O)C(C)(C)C(=O)[C@H](C)[C@H]1O[C@@H]1O[C@H](C)C[C@H](N(C)C)[C@H]1O [Compound 108]",
    "Measured On": "K. pneumoniae MP-546",
    "Result": "< 4 mg/L"
  },
  {
    "Molecule": "CO[C@]1(C)C[C@@H](C)CN(C(C)=O)[C@H](C2CCN(C(C)C)CC2)COC(=O)C(C)(C)C(=O)[C@H](C)[C@H]1O[C@@H]1O[C@H](C)C[C@H](N(C)C)[C@H]1O [Compound 174]",
    "Measured On": "K. pneumoniae MP-546",
    "Result": "> 32 mg/L"
  },
  {
    "Molecule": "CO[C@]1(C)C[C@@H](C)CN(C)[C@H](C2CCN(C(C)C)CC2)COC(=O)C(C)(C)C(=O)[C@H](C)[C@H]1O[C@@H]1O[C@H](C)C[C@H](N(C)C)[C@H]1O [Compound 151]",
    "Measured On": "K. pneumoniae MP-546",
    "Result": "< 4 mg/L"
  }
]

Which MIC value is on record for CO[C@]1(C)C[C@@H](C)CN[C@@H](c2ccccc2)COC(=O)[C@H](C)C(=O)[C@H](C)[C@H]1O[C@@H]1OC(C)CC(N(C)C)C1O (stereo partly shown) [Compound 205] ? > 32 mg/L

Which MIC value is on record for CO[C@]1(C)C[C@@H](C)CN(C)[C@H](C2CCN(C(=O)CN(C)C)CC2)[C@H](C)OC(=O)C(C)(C)C(=O)[C@H](C)[C@H]1O[C@@H]1O[C@H](C)C[C@H](N(C)C)[C@H]1O [Compound 159] ? > 32 mg/L
